molecular target: HIV-Integrase (Human immunodeficiency virus type 1 group M subtype B, UniProt P12497); construct: Recombinant integrase (0.26 ng) was incubated with the beads; assay: HIV-Integrase binding assay (competition with [3H]-compound I, SPA); conditions: competitive binding vs [3H]-compound I to purified integrase; Ki by Cheng and Prusoff; read-out: in vitro binding
Recorded endpoint: Ki

- CC1(C)COCCn2c1nc(C(=O)NCc1ccc(F)cc1S(C)(=O)=O)c(O)c2=O: 3 to 50 nM
- Cc1nc(-c2cc(F)ccc2CNC(=O)c2nc3n(c(=O)c2O)CCOCC32CCOCC2)n(C)n1: 3 to 50 nM
- O=C(NCc1ccc(F)cc1)c1nc2n(c(=O)c1O)CCOCC2: 3 to 50 nM
- CS(=O)(=O)c1cc(F)ccc1CNC(=O)c1nc2n(c(=O)c1O)CCOCC21CCC1: 1 to 3 nM
- Cc1cnnn1-c1cc(F)ccc1CNC(=O)c1nc2n(c(=O)c1O)CCOCC2(C)C: 3 to 50 nM
- O=C(NCc1ccc(F)cc1)c1nc2n(c(=O)c1O)CCOCC21CCCC1: 1 to 3 nM
- Cc1ncnn1-c1cc(F)ccc1CNC(=O)c1nc2n(c(=O)c1O)CCOCC2(C)C: 3 to 50 nM
- Cn1ncnc1-c1cc(F)ccc1CNC(=O)c1nc2n(c(=O)c1O)CCOCC21CCOCC1: 3 to 50 nM
- O=C(NCc1ccc(F)cc1)c1nc2n(c(=O)c1O)CCOCC21CCC1: 1 to 3 nM
- Cn1cnn(-c2cc(F)ccc2CNC(=O)c2nc3n(c(=O)c2O)CCOCC32CCOCC2)c1=O: 3 to 50 nM
- Cc1cnnn1-c1cc(F)ccc1CNC(=O)c1nc2n(c(=O)c1O)CCOCC21CCOCC1: 3 to 50 nM
- O=C(NCc1ccc(F)cc1-n1cnc(CO)n1)c1nc2n(c(=O)c1O)CCOCC21CCOCC1: 3 to 50 nM
- O=C(NCc1ccc(F)cc1-n1ncnc1CF)c1nc2n(c(=O)c1O)CCOCC21CCOCC1: 3 to 50 nM
- CC1(C)COCCn2c1nc(C(=O)NCc1ccc(F)cc1)c(O)c2=O: 3 to 50 nM
- O=C(NCc1ccc(F)cc1-n1cncn1)c1nc2n(c(=O)c1O)CCOCC21CCOCC1: 1 to 3 nM
- Cc1ncn(-c2cc(F)ccc2CNC(=O)c2nc3n(c(=O)c2O)CCOCC3(C)C)n1: 3 to 50 nM
- Cc1ncnn1-c1cc(F)ccc1CNC(=O)c1nc2n(c(=O)c1O)CCOCC21CCCC1: 1 to 3 nM
- CC1(C)COCCn2c1nc(C(=O)NCc1ccc(F)cc1N1CCCC1=O)c(O)c2=O: 1 to 3 nM
- COCc1ncn(-c2cc(F)ccc2CNC(=O)c2nc3n(c(=O)c2O)CCOCC32CCOCC2)n1: 3 to 50 nM
- CC1(C)COCCn2c1nc(C(=O)NCc1ccc(F)cc1-n1cncn1)c(O)c2=O: 3 to 50 nM
- Cc1nc(C)n(-c2cc(F)ccc2CNC(=O)c2nc3n(c(=O)c2O)CCOCC32CCCC2)n1: 3 to 50 nM
- O=C(NCc1ccc(F)cc1)c1nc2n(c(=O)c1O)CCOCC21CCOCC1: 3 to 50 nM
- Cc1ncn(-c2cc(F)ccc2CNC(=O)c2nc3n(c(=O)c2O)CCOCC32CCOCC2)n1: 3 to 50 nM
- Cc1nn(-c2cc(F)ccc2CNC(=O)c2nc3n(c(=O)c2O)CCOCC32CCOCC2)c(=O)n1C: 3 to 50 nM
- O=C(NCc1ccc(F)cc1-n1cncn1)c1nc2n(c(=O)c1O)CCOCC21CCCC1: 1 to 3 nM
- CC1(C)COCCn2c1nc(C(=O)NCc1ccc(F)cc1-n1ncnc1-c1ccccc1)c(O)c2=O: ≥ 50 nM
- O=C(NCc1ccc(F)cc1-n1cncn1)c1nc2n(c(=O)c1O)CCOCC21CCC1: 1 to 3 nM
- Cc1ncnn1-c1cc(F)ccc1CNC(=O)c1nc2n(c(=O)c1O)CCOCC21CCC1: 1 to 3 nM
- CS(=O)(=O)c1cc(F)ccc1CNC(=O)c1nc2n(c(=O)c1O)CCOCC21CCCC1: 1 to 3 nM
- CNC(=O)c1cc(F)ccc1CNC(=O)c1nc2n(c(=O)c1O)CCOCC21CCOCC1: 3 to 50 nM
- Cc1n[nH]c(-c2cc(F)ccc2CNC(=O)c2nc3n(c(=O)c2O)CCOCC32CCOCC2)n1: 1 to 3 nM
- Cc1ncnn1-c1cc(F)ccc1CNC(=O)c1nc2n(c(=O)c1O)CCOCC21CCOCC1: 3 to 50 nM
- COP(=O)(OC)c1cc(F)ccc1CNC(=O)c1nc2n(c(=O)c1O)CCOCC2(C)C: 3 to 50 nM

All values here come from patent US8039458B2.
